# System: HCC-2998 colon
# Method notes: NCI tumour cell line growth inhibition, 48 h
Consider the following molecules; for each one, report its GI50.

Look up GI50 for this molecule: CC1=C(CCCOC(=O)NCCCl)C2=C(C)C3(CC3)[C@@](C)(O)C(=O)C2=C1
2.35 µM

For Cn1cc(C2=C(c3ccc(OC[C@@H](O)CO)cc3)C(=O)NC2=O)c2ccccc21 , what is its reported GI50?
> 25 µM

Name the recorded GI50 for OC(c1cccc(C(F)(F)F)c1)c1cnccc1NC1CCCCCC1 (configuration not stated) .
1.74 µM

What does the record list as GI50 for COc1ccc(CN2CCCC(C(=O)c3ccc(C(F)(F)F)cc3)C2)c(O)c1 (configuration not stated) ?
24 µM

What GI50 value was documented for this molecule, COc1cccc(-c2nn(-c3ccccc3)cc2-c2ccnc(NCCCNS(=O)(=O)c3cccc(F)c3)c2)c1 ?
3.92 µM

Consider the molecule shown here: COC(=O)[C@@H](C)C[C@H](Cc1ccccc1)NC(=O)c1nc([C@@H](C[C@H](C(C)C)N(C)C(=O)[C@@H](NC(=O)[C@H]2CCCN2C)C(C)C)OC(C)=O)sc1C What is its recorded GI50?
< 0.0025 µM

// returns reported GI50 for input Cc1c(N2C(=O)/C(=C\c3ccccc3O)N=C2c2ccccc2)c(=O)n(-c2ccccc2)n1C
> 100 µM

I'd like to know its GI50. The molecule in question is COc1nc2c(cc1S(=O)(=O)c1ccccc1)CCc1c-2cnn1-c1ccccc1Cl
> 100 µM

Which GI50 is listed for Cn1c(-c2nonc2N)nc2cnccc21 ?
> 25 µM

Look up GI50: COc1cc([C@@H]2c3cc4c(cc3C[C@H]3COC(=O)[C@@H]32)OCO4)cc(OC)c1OC
0.00446 µM

// query GI50 value for entry ClCc1ccccc1CSc1ncnc2nc[nH]c12
> 60 µM

Requested read-out: GI50. Entry: COC(=O)c1c2c(c(C)[n+]([O-])c1C)C(=O)C=CC2=O
1.64 µM

====

# Tested on: MDA-MB-231 breast
# Method notes: NCI tumour cell line growth inhibition, 48 h
Please provide measured TGI for the entries that follow.

TGI lookup needed for C[C@@H]1Cc2c([nH]c3ccccc23)[C@@H](c2c(F)cc(/C=C/C(=O)O)cc2F)N1CC(C)(C)F , thanks.
38 µM

Report TGI for N#CC(C#N)=C1CCCS(=O)(=O)c2ccccc21 please.
> 100 µM

// returns reported TGI for input Cc1nc2cc(C(F)(F)F)ccc2[nH]c1=O
> 100 µM

I am curious: what TGI value has been reported for CO/N=C1/c2sccc2[C@H](NC(=O)CNC(=O)OC(C)(C)C)[C@@H]1O ?
> 100 µM

TGI for CC1=C(CCCOC(=O)NCCCl)C2=C(C)C3(CC3)[C@@](C)(O)C(=O)C2=C1 ?
8.35 µM

TGI lookup needed for O=C1/C(=C/c2ccc(F)cc2)CNC/C1=C\c1ccc(F)cc1 , thanks.
13.5 µM

I would be grateful if you could share the reported TGI for CC(=O)c1ccc(N(/C=C/C(=O)C(F)(F)F)CC(=O)c2ccc(Cl)c(Cl)c2)cc1 .
25 µM

Could you tell me which TGI is on file for CSc1c(C(=O)Nc2ccc(C)cc2)c(N)[nH]c(=O)c1C#N ?
> 100 µM

Record request: TGI value, item O=C1C(C=NCCc2c[nH]c3ccccc23)C(C(F)(F)F)=NN1c1nc2ccccc2s1 (stereo not given)
> 100 µM

Which TGI value belongs to CCOC(=O)c1c(SCCN2CCCC2)n(-c2ccccc2)c(=S)n(-c2ccccc2)c1=O ?
4.4 µM

Values compiled from PubChem BioAssay (NCI).
